Assign protein stability index to each entry below.
test system: Saccharomyces cerevisiae; test: protein stability index of tFT-peptide fusion (C-terminal peptide) (PSI (0-1 scale)); higher = more stable (slower turnover); settings: genetic background: wild type; temperature: 30 C;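 also: PSI is a weighted mean of sequencing reads over stability bins, variants kept only with over 10 reads, mCherry proximal and sfGFP distal, peptide attached via GGGS linker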

SEQUENCE ENTRY | MEASUREMENT KIND | RESULT
DSLSVSLSLVRG | protein stability index | 0.696

Please give protein stability index for each item listed below.
1. TKSRKWEERENQ
2. KGYEGGRRCELE
3. KKKKNKLRNKQE
4. YVSLAHLRWGVE

Output line:
0.682
0.696
0.656
0.732

Please give protein stability index for each item listed below.
1. RADQGGVVNGEG
2. TKEEDKNEGRRR
3. YWSAQGRVVCVL
4. ENRGIEITGKRS
5. TRQRSDRPRAPR
6. IGRLQGWSSGDE
7. RKRHDLPPAGPH
8. FGGGGLAPSLQS

Output line:
1: 0.732; 2: 0.662; 3: 0.481; 4: 0.727; 5: 0.652; 6: 0.688; 7: 0.713; 8: 0.602

----------
Assign protein stability index to each entry below.
tested on: Saccharomyces cerevisiae; assay: protein stability index of tFT-peptide fusion (C-terminal peptide) (PSI (0-1 scale)); higher = more stable (slower turnover); details: genetic background: wild type; temperature: 30 C
Give bare numbers.

Worked set:
SEQUENCE ENTRY | protein stability index
AHLLLRPPLVAH | 0.486
GRRRGGAVVEGV | 0.678
DPYYGFRMRIPF | 0.691
NHETRNCEGINS | 0.657
PLVQSSCCRNYY | 0.7
YVLWFVCGVGFV | 0.392
FFAGELGVYCLV | 0.596
LPPSTYPASTPS | 0.674

Please give protein stability index for each item listed below.
1. VLTGLLFRRPRS
2. GTYGLCVWGRYL
3. VYTNAVPLSSNA
4. LLCRVSRTRILC

Output line:
0.604
0.633
0.817
0.227

Please give protein stability index for each item listed below.
1. FCWLCRFADSPF
2. PSLPDSALRHSL
3. GGGGVFGVVRVG
4. IKRVPRRSEYRG
5. TKTKKKTQEGSR
6. CARYFFLHPSLG
7. GVRGGCDRGEVG
8. GWKLGAGRRGVI

Output line:
1. 0.733
2. 0.707
3. 0.631
4. 0.633
5. 0.739
6. 0.68
7. 0.604
8. 0.704

----------
test system: Saccharomyces cerevisiae; experiment: protein stability index of tFT-peptide fusion (C-terminal peptide) (PSI (0-1 scale)); higher = more stable (slower turnover); settings: genetic background: das1 deletion; temperature: 37 C
Assign protein stability index to each entry below.

Worked set:
SEQUENCE ENTRY | protein stability index
LAEHIFLVLDHG | 0.499
HILRLVYFIVYE | 0.504
FVVIFRFSRFSA | 0.512

Please give protein stability index for each item listed below.
1. PASYPPFIYLSI
2. VVGFVFSCWWSW
3. LYFLLGSLVFVF

Output line:
1: 0.496; 2: 0.506; 3: 0.506

----------
tested on: Saccharomyces cerevisiae; test: protein stability index of tFT-peptide fusion (C-terminal peptide) (PSI (0-1 scale)); higher = more stable (slower turnover); conditions: genetic background: das1 deletion; temperature: 37 C
MEASUREMENT KIND: protein stability index
One number for each entry.

SEQUENCE ENTRY | protein stability index
CFFPLFLCTAFC | 0.513
LIRVLRVLRHSS | 0.723
QARQLEMYMVVF | 0.579

Please give protein stability index for each item listed below.
1. LHLLFLPFVVCL
2. LVCLVASCVRWL

Output line:
0.348
0.566
